Biological target: T1, human CTLA-4 (human, UniProt P16410 36-161, limits assumed)
T1 construct: also called HuCTLA-4; human cytotoxic T lymphocyte antigen-4
T1 sequence: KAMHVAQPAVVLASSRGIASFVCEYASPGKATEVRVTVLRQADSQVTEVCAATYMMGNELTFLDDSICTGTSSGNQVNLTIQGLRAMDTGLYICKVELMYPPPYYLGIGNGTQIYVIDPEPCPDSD
Assay: ELISA, human CTLA-4 binding
VALUE KIND: EC50

1) MAb A3 (32G12D2) (antibody, V domains shown, also called murine antibody A3) VH: QVQLQQPGAELVRPGSSVKLSCKASGYTFTSYWMHWVKQRPIQGLEWIGNIDPSDSETHYNQNFKDKATLTVDKSSSTAYLQLSSLTSEDSAVYYCARRYTSSSFDYWGQGTTLTVSS VL: DIQMTQTTSSLSASLGDRVTVSCRASQDIRNYLNWYQQKPDGTVKLLIYFTSKLHSGVPSRFSGSGSGTDYFLAISNLEQEDIATYFCQQGNTLPYTFGGGTKLEIK
0.026 nM
2) MAb A2 (7G10D3) (antibody, V domains shown, also called murine antibody A2) VH: QIQLVQSGPELKKPGETVKISCKASGYTFTTYGMSWVKQTPGKGLKWMGWINTYSGVPTYADDFKGRFAFSLETSASTAYLQINNLKNEDTATYFCARGRDYYGSSYRLFGVWGTGTTVTVSS VL: DIQMTQTTSSLSASLGDRVTISCRASQDISNYLNWYQQKPDGTVKLLIYYTSILNSGVPSKFSGSGSGTDYSLTISNLEQEDIATYFCQQGNTLPWTFGGGTKLEIK
0.077 nM
